tested on: RPMI-8226 leukemia; test: NCI tumour cell line growth inhibition, 48 h; in the data active = GI50 below about 0.43 µM; inactive = the rest
Pick one: Y = active, N = inactive

Examples from the recorded data:
Clc1ccc2c(NCCCCNc3nc(N4CCCCC4)nc4ccccc34)ccnc2c1 ... N
O=C(Nc1ccccc1)NS(=O)(=O)c1ccc(-n2nc3c(c2-c2cccs2)Cc2ccccc2-3)cc1 ... N
O=C1CC(c2ccc3c(c2)OCO3)Nc2ccccc21 (configuration not stated) ... N
CCCCCN(CCCCC)CCCNc1c2c(nc3ccc(Cl)cc13)CCCC2 ... N
COc1cc(-c2nn(-c3ccc(NC(=O)c4ccc(Cl)c(C(F)(F)F)c4)cc3)cc2-c2ccncc2)ccc1Cl ... N

Query: Kindly provide the recorded test outcome for the following molecule: O=C([O-])CC(=O)[O-].O=C([O-])CC(=O)[O-].[K+].[Pd+2]
Response: N

Query: Kindly provide the recorded test outcome for the following molecule: Cn1c2ccccc2c2c(Nc3ccccc3)c3ccccc3nc21
Response: N

Query: Kindly provide the recorded test outcome for the following molecule: CC[C@@]1(O)C[C@H](OC2CC(N(C)C)C(O)C(C)O2)c2c(O)c3c(c(O)c2[C@H]1OC1CC(N(C)C)C(O)C(C)O1)C(=O)c1cccc(O)c1C3=O (some centres not stated)
Response: Y

Query: Kindly provide the recorded test outcome for the following molecule: COc1ccc(-c2nc3sccn3c2/C(N)=N/C(=N)N)cc1OC
Response: N

Query: Kindly provide the recorded test outcome for the following molecule: O=S(=O)(NC1=NCCN1C(=S)SN1CCn2c1nsc2=S)c1ccc(OC(F)(F)F)cc1
Response: N

Query: Kindly provide the recorded test outcome for the following molecule: Cc1nc2ccccc2c(N)c1-c1cc(C)c2c(C)nc3ccccc3c2n1
Response: Y

Query: Kindly provide the recorded test outcome for the following molecule: COc1cc(Cc2cnc(/N=C3\C(=O)N(CN4CCN(c5c(F)cc6c(=O)c(C(=O)O)cn(C7CC7)c6c5OC)CC4C)c4ccc(F)cc43)nc2N)cc(OC)c1OC (configuration not stated)
Response: N
